Test: Antioxidant activity against pentose 2-deoxyribose oxidation at 250 uM after 60 mins by TBA method
Format: functional
Active and inactive are the calls of the source. The rule behind the calls is not given here.
Recorded Endpoint: inhibition

> print(dat)
                           smiles.structure  recorded.endpoint    result
1  CC1(C)CCC[C@@]2(C)C1=C(O)C(=O)c1c(O)c3c(c(O)c12)O[C@@H](CO)C3         inhibition       50%
2  C[C@H]1Cc2c(O)c3c(c(O)c2O1)[C@@]1(C)CC[C@H]2C[C@@]2(C)C1=C(O)C3=O         inhibition       50%
3  Cc1cc2c(O)c3c(c(O)c2o1)[C@@]1(C)CC[C@H]2C[C@@]2(C)C1=C(O)C3=O         inhibition  inactive
4  C[C@H]1Cc2c(O)c3c(c(O)c2O1)[C@@]1(C)CCC(=O)C(C)(C)C1=C(O)C3=O         inhibition       50%
5  C[C@H]1Cc2c(O)c3c(c(O)c2O1)[C@@]1(C)CC[C@H]2C[C@@]2(C)[C@@H]1CC3=O         inhibition       50%
6  Cc1cc2c(O)c3c(c(O)c2o1)[C@@]1(C)CCCC(C)(C)C1=C(O)C3=O         inhibition  inactive
7  C[C@@H]1Oc2c(O)c3c(c(O)c2[C@H]1O)C(=O)C(O)=C1[C@]3(C)CC[C@H]2C[C@@]12C         inhibition       50%
